Data provenance is ChEMBL document CHEMBL5365549.

Assay: Cmax in human at 30 mg administered as formulated fed (high-fat meal) capsules
Assay type: ADME
Parameters: dose 30 mg
Settings: in vivo, po
RECORDED_METRIC: Cmax (ng/mL)
Field format: number, assumed ng/mL, no unit text.

-- ask // Cmax lookup, key: C[C@@]1(O)CC[C@H]2[C@H](CC[C@@H]3[C@@H]2CC[C@]2(C)[C@@H](C(=O)CO)CC[C@@H]32)C1
-- reply 63.1

----------
Test: AUC (0 to infinity) in human at 30 mg administered as formulated fed (high-fat meal) capsules
Type: ADME
Design: dose 30 mg
Conditions: in vivo, po
RECORDED_METRIC: AUC(0-inf) (ng·h/mL)
Field format: number, assumed ng·h/mL, no unit text.

-- ask // AUC(0-inf) lookup, key: C[C@@]1(O)CC[C@H]2[C@H](CC[C@@H]3[C@@H]2CC[C@]2(C)[C@@H](C(=O)CO)CC[C@@H]32)C1
-- reply 1010

----------
Test: AUC (0 to t) in human at 30 mg administered as formulated fed (high-fat meal) capsules
Assay type: ADME
Parameters: dose 30 mg
Conditions: in vivo, po
RECORDED_METRIC: AUC(0-t) (ng·h/mL)
Field format: number, assumed ng·h/mL, no unit text.

-- ask // AUC(0-t) lookup, key: C[C@@]1(O)CC[C@H]2[C@H](CC[C@@H]3[C@@H]2CC[C@]2(C)[C@@H](C(=O)CO)CC[C@@H]32)C1
-- reply 838

----------
Test: Cmax in human at 30 mg administered as formulated fasted capsules
Type: ADME
Parameters: dose 30 mg
Details: in vivo, po
RECORDED_METRIC: Cmax (ng/mL)
Field format: number, assumed ng/mL, no unit text.

-- ask // Cmax lookup, key: C[C@@]1(O)CC[C@H]2[C@H](CC[C@@H]3[C@@H]2CC[C@]2(C)[C@@H](C(=O)CO)CC[C@@H]32)C1
-- reply 21.8
